Each recorded value in this set is attributed to PubChem BioAssay AID1259374.

target: Microphthalmia-associated transcription factor (Homo sapiens); assay: MITF inhibitors, primary screen, biochemical, AlphaScreen, human (AID 1259374); conditions: AlphaScreen MITF homodimerization, bead proximity signal; at 2.6 µM; hits give high values;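 further: 0% = vehicle wells with protein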
Among all 650,000 compounds or so, about 5,900 (0.91%) were called active. Many of the other results were omitted from the sample, so actives are more common in it than they were.
measurement-kind: inhibition (%)
Field: numeric (%). Do not append units.

These recorded examples may help you get a feel for the data.
Cc1ccc(C23CC4CC(CC(C(=O)NCC(=O)NN)(C4)C2)C3)cc1 | -4.06
C/C(=N\N=C1\NC(=O)CC(C(=O)Nc2cccc(C(=O)O)c2)S1)c1ccccc1 (configuration not stated) | 7.7
NS(=O)(=O)c1ccc2nc(NC(=O)COc3ccccc3)sc2c1 | 5.22
CCCCCCOC(=O)c1ccc(-c2ccc(-c3ccc(C(=O)OCCCCCC)cc3)cc2)cc1 | 14.5
O=C(Nc1nc2ccccc2n1CCOc1ccc(F)cc1)c1ccc(Cl)cc1 | -6.19
CCCS(=O)(=O)N1CCN(Cc2cccc(Cl)c2)CC1 | 54.8
COc1ccccc1/C=C(/C#N)c1nc2ccccc2[nH]1 | 11.1
CCOc1cc(CN2CCN(Cc3ccccn3)CC2)ccc1OC | 62.3
CN1C(=O)CSC1=Nc1ccc(Cl)c(Cl)c1 | -5.98
CCN(CC)CCNC(=O)c1sc2ncn(Cc3ccccc3F)c(=O)c2c1C | -7.31

Summary for this compound, Cc1ccc(N2C(=O)CN(S(C)(=O)=O)CC2(C)C(=O)NC2CCCC2)cc1C (configuration not stated) : inhibition is -2.11

Summary for this compound, Cc1ccc(/C=C(\C#N)C(N)=O)c(C)c1 : inhibition is 6.24

Summary for this compound, CCCS(=O)(=O)N1CCC(O)(c2cccnc2)CC1 : inhibition is 13.4

###

Below, each entry is listed with its recorded inhibition.
molecular target: Microphthalmia-associated transcription factor (Homo sapiens) (UniProt O75030); assay: MITF inhibitors, primary screen, biochemical, AlphaScreen, human (AID 1259374); conditions: AlphaScreen MITF homodimerization, bead proximity signal; at 2.6 µM; hits give high values;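 further: 0% = vehicle wells with protein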
Sequence (O75030 whole entry, looked up): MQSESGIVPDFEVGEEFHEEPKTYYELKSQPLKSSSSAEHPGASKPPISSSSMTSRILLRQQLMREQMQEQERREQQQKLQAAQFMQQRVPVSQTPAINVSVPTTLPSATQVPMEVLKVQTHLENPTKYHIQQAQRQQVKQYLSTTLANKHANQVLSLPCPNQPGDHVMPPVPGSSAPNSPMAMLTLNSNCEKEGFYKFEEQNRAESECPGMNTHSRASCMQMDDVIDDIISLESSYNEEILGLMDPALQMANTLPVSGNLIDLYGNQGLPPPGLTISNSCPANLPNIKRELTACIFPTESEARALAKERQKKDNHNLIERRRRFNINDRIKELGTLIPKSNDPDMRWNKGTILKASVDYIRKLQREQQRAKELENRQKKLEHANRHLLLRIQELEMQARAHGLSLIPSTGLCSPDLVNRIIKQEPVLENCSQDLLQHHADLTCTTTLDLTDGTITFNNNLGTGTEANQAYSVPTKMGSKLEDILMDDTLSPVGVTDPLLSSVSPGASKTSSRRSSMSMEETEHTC
In all, about 650,000 compounds went through this assay and about 5,900 (0.91%) were called active. This excerpt belongs to a sample that is enriched for actives.

These recorded examples may help you get a feel for the data.
Cc1cc(NC(=O)/C=C/C(=O)N(CC(=O)NC2CCCC2)c2ccc(F)cc2)no1 | 75% (active)
COc1ccc(-c2ncc(C)c(NC3CCN(Cc4ccccc4)CC3)n2)cc1 | 9.68% (inactive)

Summary for this compound, O=C(Oc1ccc2sc(=O)oc2c1)c1cccc(C(F)(F)F)c1 : inhibition is -7.72% (inactive)

Summary for this compound, CSc1ccc(CN2CCN(C(=O)c3cccc(F)c3)CC2)cc1 : inhibition is 34.1% (inactive)

Summary for this compound, O=C(Nc1cncc(-c2ccncc2)c1)C1COc2cc3ccccc3cc2O1 (stereo unspecified) : inhibition is 3.75% (inactive)

Summary for this compound, O=C(Nc1ccc(-c2ccncc2)c(C(F)(F)F)c1)C1COc2ccccc2O1 (stereo unspecified) : inhibition is 53.1% (active)

Summary for this compound, Cc1ccc(S(=O)(=O)N(CCC(=O)NCC2CCCO2)Cc2c(Cl)cccc2Cl)cc1 (stereo unspecified) : inhibition is -0.49% (inactive)

Summary for this compound, CCOC(=O)C1CCCN(c2c(OCC)c(=O)c2=O)C1 (stereo unspecified) : inhibition is -5.33% (inactive)

Summary for this compound, Cc1ccc(S(=O)(=O)N/N=C/c2cccnc2)cc1[N+](=O)[O-] : inhibition is -30.1% (inactive)

Summary for this compound, COc1ccc(-c2nc3n(c2NC(C)(C)C)CCNC3)cc1 : inhibition is 0.05% (inactive)

Summary for this compound, O=C(CNC1CCCC1)Nc1ccc(N2CCCC2)cc1 : inhibition is 6.86% (inactive)

Summary for this compound, O=C(CNCc1ccc(F)cc1)Nc1ccc(N2CCCC2)cc1 : inhibition is 53.1% (active)

Summary for this compound, OCCC1CN(Cc2ccc(F)c(F)c2)CCN1C1CCCC1 (stereo unspecified) : inhibition is -7.36% (inactive)

Summary for this compound, Cc1ccc(CS(=O)(=O)CCC(=O)NCc2ccc(F)cc2)cc1 : inhibition is 9.88% (inactive)

Summary for this compound, Cc1ccc(OCCOCCN2CCN(C)CC2)c(Br)c1 : inhibition is 42.5% (inactive)

Summary for this compound, Cc1cc(C)cc(N(CC(=O)NC2CCCC2)C(=O)CCC(=O)Nc2cc(C)on2)c1 : inhibition is 5.39% (inactive)

Summary for this compound, Clc1cccc(CN2CCN(C3CCCC3)CC2)c1 : inhibition is 67.8% (active)
